The origin of these recorded values is PubChem BioAssay AID1159580.

Assay: chemical genetic growth profiling, strain panel (AID 1159580);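 note: tested at 20 µM; growth read once vehicle control cultures reached saturation at 30 °C; 1 = growth at the plate median or of vehicle wells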
Conditions: S. cerevisiae deletion strains, growth OD, locus YDL101C, strain DUN1, stronger effect = lower value
The campaign covered roughly 5,500 compounds. About 2,000 (36%) were called active. Roughly 18% stayed inconclusive and do not appear here. The list shows a part of the results.
Response field label takes Fulfilled when normalized growth is strictly below 1 and Not fulfilled in all other cases.

Nc1ccc(Sc2ccccc2)nc1Sc1ccccc1
Fulfilled

Q. Consider the molecule Cc1cc(O)ccc1Cl . Is its normalized growth strictly less than 1?
A. Not fulfilled

====

Test: chemical genetic growth profiling, strain panel (AID 1159580)
Settings: S. cerevisiae deletion strains, growth OD, locus YLR342W, strain FKS1 (second series), stronger effect = lower value
Among all 5,500 compounds or so, about 2,000 (36%) were called active. Not shown: some 18% with an inconclusive outcome. This is one part of the list.
Below, each of the compounds is paired with its reported normalized growth value.

// known answers, use as guide
C[C@]12CCC(=O)C=C1CCC1C2[C@@H](O)C[C@@]2(C)C1CC[C@]2(O)C(=O)CO (some centres undefined)
1.01 (inactive)
C[C@@H]1C(=O)O[C@H]2[C@H]1CC[C@@]1(C)C=CC(=O)[C@@]3(C)O[C@@]213
1.01 (inactive)
Nc1c2ccccc2nc2ccccc12
0.713 (active)
COc1cccc(OC)c1OCCNCC1COc2ccccc2O1 (centres undefined)
0.965 (inactive)
C/C=C(/C)C(=O)O[C@@H]1[C@H](OC(C)=O)[C@@]2(CO)C(CC1(C)C)C1=CCC3[C@@]4(C)CC[C@H](O[C@@H]5O[C@H](C(=O)O)[C@@H](O[C@@H]6O[C@H](CO)[C@@H](O)[C@H](O)[C@H]6O)[C@H](O)[C@H]5O[C@@H]5O[C@H](CO)[C@@H](O)[C@H](O)[C@H]5O)[C@](C)(CO)C4CC[C@@]3(C)[C@]1(C)C[C@H]2O (some centres undefined)
1.05 (inactive)

Q. Return normalized growth for the following compound: CNC(=O)O/N=C\C(C)(C)SC
A. 1 (inactive)

Q. Return normalized growth for the following compound: Fc1ccc(C(c2ccccc2)(c2ccccc2F)n2ccnc2)cc1 (centres undefined)
A. 0.0856 (active)

====

Below, each of the compounds is paired with its reported normalized growth value.
Assay: chemical genetic growth profiling, strain panel (AID 1159580)
Conditions: S. cerevisiae deletion strains, growth OD, locus YOL147C, strain pex11, stronger effect = lower value
The whole screen tested about 5,500 compounds, of which about 2,000 (36%) were called active. Not shown: some 18% with an inconclusive outcome. Some of the results follow.

// known answers, use as guide
COC(=O)Nc1nc2ccc(C(=O)c3ccccc3)cc2[nH]1
0.988 (inactive)
CC(=O)NC(C(=O)O)C(C)(C)SN=O (centres undefined)
0.995 (inactive)
COc1ccc2c(c1)c(CC(=O)O)c(C)n2C(=O)c1ccc(Cl)cc1
0.981 (inactive)
COC(=O)Nc1nc2ccc(Sc3ccccc3)cc2[nH]1
0.996 (inactive)
CNCc1ccccc1
0.989 (inactive)

Q. Return normalized growth for the following compound: O=C1C(O)=C(O)C(=O)C(O)=C1O
A. 0.993 (inactive)

Q. Return normalized growth for the following compound: CCOP(=S)(OCC)Oc1nc(Cl)c(Cl)cc1Cl
A. 0.977 (inactive)

Q. Return normalized growth for the following compound: CC(=O)NCc1c(I)c(NC(C)=O)c(I)c(C(=O)O)c1I
A. 0.995 (inactive)

Q. Return normalized growth for the following compound: NNC(=O)c1ccncc1
A. 0.994 (inactive)

====

Below, each of the compounds is paired with its reported normalized growth value.
Assay: chemical genetic growth profiling, strain panel (AID 1159580)
Settings: S. cerevisiae deletion strains, growth OD, locus YDR392W, strain spt3, stronger effect = lower value
Screen size: about 5,500 compounds; about 2,000 (36%) were called active. Another 18% or so got no clear call; they are omitted. The list shows a part of the results.

// known answers, use as guide
CC(=O)O[C@H]1CC[C@@]2(C)C(CC[C@]3(C)C2CC=C2C4CC(C)(C)CC[C@]4(C)CC[C@]23C)C1(C)C (some centres undefined)
0.889 (inactive)
Cc1cc(O)cc(O)c1C(=O)O
0.897 (inactive)
C[C@@H]1CC[C@]2(C(=O)O)CC[C@]3(C)C(=CCC4[C@@]5(C)CC[C@H](O)C(C)(C)C5CC[C@]43C)C2[C@H]1C (some centres undefined)
0.911 (inactive)

Read the next record carefully.
Q. Return normalized growth for the following compound: NNc1nncc2ccccc12
A. 0.878 (inactive)

====

Test: chemical genetic growth profiling, strain panel (AID 1159580)
Conditions: S. cerevisiae deletion strains, growth OD, locus YPL055C, strain LGE1, stronger effect = lower value
Among all 5,500 compounds or so, about 2,000 (36%) were called active. Roughly 18% stayed inconclusive and do not appear here. This is one part of the list.
READOUT_TYPE: normalized growth
Please give the numeric answer without any surrounding text.

Cc1cc(OCOc2ccc(Cl)c(C)c2)ccc1Cl
0.975
Cc1c(S(=O)(=O)c2ccc(Cl)cc2)cnc2cc(C(C)(C)C)nn12
1.01
CS/C(N)=N\N=C/c1c(F)cccc1Cl
1
O=C(NC1Cc2ccccc2C1)c1cncc(Br)c1
0.982

Q. Return normalized growth for the following molecule: NCc1cc(=O)[nH]o1
A. 1.01

Q. Return normalized growth for the following molecule: COc1cc(C2OC(c3cc(C)ccc3[N+](=O)[O-])=NN2C(C)=O)cc(OC)c1OC (stereo unspecified)
A. 0.972

====

Assay: chemical genetic growth profiling, strain panel (AID 1159580);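 note: tested at 20 µM; growth read once vehicle control cultures reached saturation at 30 °C; 1 = growth at the plate median or of vehicle wells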
Conditions: S. cerevisiae deletion strains, growth OD, locus YNL233W, strain BNI4, stronger effect = lower value
The campaign covered roughly 5,500 compounds. About 2,000 (36%) were called active. Roughly 18% stayed inconclusive and do not appear here. The list shows a part of the results.
READOUT_TYPE: normalized growth

COc1ccc2c(c1)c(CC(=O)O)c(C)n2C(=O)c1ccc(Cl)cc1
1.01 (inactive)
CC(=O)NC(C(=O)O)C(C)(C)SN=O (stereo not given)
1.01 (inactive)
C#C[C@]1(O)CCC2C3CCC4=CC(=O)CC[C@@H]4C3CC[C@@]21C (stereo not given in full)
0.996 (inactive)
COC(=O)C[C@H]1C(C)(C)C(=O)[C@@H]2CC3C4=CC(=O)O[C@@H](c5ccoc5)[C@]4(C)CCC3[C@@]1(C)C2=O (stereo not given in full)
1.02 (inactive)
C#C[C@]1(O)CCC2C3CCC4=C(CCC(=O)C4)C3CC[C@@]21C (stereo not given in full)
0.998 (inactive)
C[C@]12CCC(=O)C=C1CCC1C2[C@@H](O)C[C@@]2(C)C1CC[C@]2(O)C(=O)CO (stereo not given in full)
1.02 (inactive)
Nc1ccc(S(=O)(=O)c2ccc(N)cc2)cc1
1.02 (inactive)
COc1ccc2c3c([nH]c2c1)C(C)=NCC3
0.999 (inactive)
CC(C)(Sc1cc(C(C)(C)C)c(O)c(C(C)(C)C)c1)Sc1cc(C(C)(C)C)c(O)c(C(C)(C)C)c1
1.02 (inactive)

Read the next record carefully.
Q. Return normalized growth for the following compound: CC(=O)NCc1c(I)c(NC(C)=O)c(I)c(C(=O)O)c1I
A. 1.01 (inactive)

====

Test: chemical genetic growth profiling, strain panel (AID 1159580);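 note: tested at 20 µM; growth read once vehicle control cultures reached saturation at 30 °C; 1 = growth at the plate median or of vehicle wells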
Conditions: S. cerevisiae deletion strains, growth OD, locus YBR231C, strain swc5, stronger effect = lower value
Out of some 5,500 compounds screened, about 2,000 (36%) were called active. Roughly 18% stayed inconclusive and do not appear here. The list shows a part of the results.
READOUT_TYPE: normalized growth
Please give the numeric answer without any surrounding text.

CC(=O)NCc1c(I)c(NC(C)=O)c(I)c(C(=O)O)c1I
1

Q. Return normalized growth for the following compound: Cc1ccnc(NS(=O)(=O)c2ccc(N)cc2)n1
A. 1.01

Q. Return normalized growth for the following compound: COC(=O)C[C@H]1C(C)(C)C(=O)[C@@H]2CC3C4=CC(=O)O[C@@H](c5ccoc5)[C@]4(C)CCC3[C@@]1(C)C2=O (stereo not given in full)
A. 0.998

Q. Return normalized growth for the following compound: OC(CCN1CCCC1)(c1ccccc1)C1CCCCC1 (stereo not given)
A. 0.977

Q. Return normalized growth for the following compound: Cc1ccc(N=CN(C)C=Nc2ccc(C)cc2C)c(C)c1
A. 1

====

Experiment: chemical genetic growth profiling, strain panel (AID 1159580);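 note: tested at 20 µM; growth read once vehicle control cultures reached saturation at 30 °C; 1 = growth at the plate median or of vehicle wells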
Conditions: S. cerevisiae deletion strains, growth OD, locus YNL153C, strain GIM3, stronger effect = lower value
The campaign covered roughly 5,500 compounds. About 2,000 (36%) were called active. Inconclusive results (about 18%) are left out. The list shows a part of the results.
READOUT_TYPE: normalized growth
Please give the numeric answer without any surrounding text.

// known answers, use as guide
Cc1cccc(NC(=S)NC2CC3C=CC2C3)c1 (stereo unspecified)
0.98
COc1ccc2c(c1)c(CC(=O)OCC(=O)O)c(C)n2C(=O)c1ccc(Cl)cc1
1.02
Nc1ccc(-n2nc(C(F)(F)F)cc2C(F)(F)F)cc1
1

Q. Return normalized growth for the following compound: Cc1cc(C)cc(NC(=S)N2CCN(c3ncc(C(F)(F)F)cc3Cl)CC2)c1
A. 1.01

Q. Return normalized growth for the following compound: CC(C)c1ccccc1NC(=S)N1CCN(c2ncc(C(F)(F)F)cc2Cl)CC1
A. 1.02

Q. Return normalized growth for the following compound: O=C(O)/C=C/C(=O)Nc1ccc(-n2nc(C(F)(F)F)cc2C(F)(F)F)cc1
A. 0.989
